Reported CC50 values for a set of compounds
# System: MB231
# Procedure text: cells
# Type: cell-based
# Run conditions: Homo sapiens, 48 h, read-out: LC50
Output spec: scalar in nM, unitless text.

Would you please look over these solved cases?
COc1ccc2c3c([nH]c2c1)[C@@]1(CS[C@@H]2c4c(OC(C)=O)c(C)c5c(c4[C@H](COCC1=O)N1C2[C@H]2c4c(cc(C)c(OC)c4O)C[C@@H]([C@@H]1O)N2C)OCO5)NCC3 (stereo partly drawn) [Compound 34] :: 127
COc1c(C)cc2c(c1O)[C@@H]1C3[C@@H]4SC[C@]5(NCCc6c5[nH]c5cc(F)ccc65)C(=O)COC[C@@H](c5c6c(c(C)c(OC(C)=O)c54)OCO6)N3[C@@H](O)[C@H](C2)N1C (stereo partly drawn) [Compound 32] :: 90.6

Would you kindly look at the next entry?
Query block: For COc1c(C)cc2c(c1O)[C@@H]1C3[C@@H]4SC[C@]5(NCCc6c5[nH]c5ccc(C)cc65)C(=O)COC[C@@H](c5c6c(c(C)c(OC(C)=O)c54)OCO6)N3[C@@H](O)[C@H](C2)N1C (stereo partly drawn) [Compound 30] , what is its reported CC50?
Result block: 3.9

###

# Procedure text: physchem
# Run conditions: pH 7.4, log D n-Octanol-Dulbecco's PBS pH 7.4
Reported metric: logD at 60 min

COc1c(C)cc2c(c1O)[C@@H]1C3[C@@H]4SC[C@]5(C(=O)COC[C@@H](c6c7c(c(C)c(OC(C)=O)c64)OCO7)N3[C@@H](O)[C@H](C2)N1C)c1[nH]c2ccc(O)cc2c1CCN5C (some centres unmarked) :: 3.5
C=COC(=O)Oc1c(OC)c(C)cc2c1[C@@H]1C3[C@@H]4SC[C@]5(NCCc6c5[nH]c5ccccc65)C(=O)COC[C@@H](c5c6c(c(C)c(OC(C)=O)c54)OCO6)N3[C@@H](O)[C@H](C2)N1C (some centres unmarked) :: > 5
COc1c(C)cc2c(c1O)[C@@H]1C3[C@@H]4SC[C@]5(NCCc6c5[nH]c5c(OCc7ccccc7)cccc65)C(=O)COC[C@@H](c5c6c(c(C)c(OC(C)=O)c54)OCO6)N3[C@@H](O)[C@H](C2)N1C (some centres unmarked) :: > 4.6
COc1c(C)cc2c(c1O)[C@@H]1C3[C@@H]4SC[C@]5(NCCc6c5[nH]c5ccc(C)cc65)C(=O)COC[C@@H](c5c6c(c(C)c(OC(C)=O)c54)OCO6)N3[C@@H](O)[C@H](C2)N1C (some centres unmarked) :: > 4.9

Would you kindly look at the next entry?
Query block: For COc1c(C)cc2c(c1OC(=O)OC(C)(C)C)[C@@H]1C3[C@@H]4SC[C@]5(NCCc6c5[nH]c5ccccc65)C(=O)COC[C@@H](c5c6c(c(C)c(OC(C)=O)c54)OCO6)N3[C@@H](O)[C@H](C2)N1C (some centres unmarked) , what is its reported logD at 60 min?
Result block: > 5

###

# Tested on: HT29
# Procedure text: cells
# Format: cell-based
# Run conditions: Homo sapiens, HT-29, 48 h, read-out: LC50, HT29, 48 hours exposure, SRB
Reported log10 CC50 values for a set of compounds
Reminder: these figures are log10 of reported CC50, in µM before transformation.

Would you please look over these solved cases?
COc1c(C)cc2c(c1O)[C@@H]1C3[C@@H]4SC[C@]5(C(=O)COC[C@@H](c6c7c(c(C)c(OC(C)=O)c64)OCO7)N3[C@@H](O)[C@H](C2)N1C)c1[nH]c2ccc(O)cc2c1CCN5C (stereo partly drawn) :: -2.94
COc1c(C)cc2c(c1O)[C@@H]1C3[C@@H]4SC[C@]5(NCCc6c5[nH]c5cc(F)ccc65)C(=O)COC[C@@H](c5c6c(c(C)c(OC(C)=O)c54)OCO6)N3[C@@H](O)[C@H](C2)N1C (stereo partly drawn) :: -0.99
COc1c(C)cc2c(c1O)[C@@H]1C3[C@@H]4SC[C@]5(NCCc6c5[nH]c5ccccc65)C(=O)COC[C@@H](c5c6c(c(C)c(OC(=O)C(F)(F)C(F)(F)C(F)(F)F)c54)OCO6)N3[C@@H](C#N)[C@H](C2)N1C (stereo partly drawn) :: 1.05
COc1c(C)cc2c(c1O)[C@@H]1C3[C@@H]4SC[C@]5(NCCc6c5[nH]c5ccc(F)cc65)C(=O)COC[C@@H](c5c6c(c(C)c(OC(C)=O)c54)OCO6)N3[C@@H](O)[C@H](C2)N1C (stereo partly drawn) :: 1.11

Query block: Any idea what log10 CC50 came out for COc1c(C)cc2c(c1O)[C@@H]1C3[C@@H]4SC[C@]5(NCCc6c5[nH]c5c(C)cccc65)C(=O)COC[C@@H](c5c6c(c(C)c(OC(C)=O)c54)OCO6)N3[C@@H](O)[C@H](C2)N1C (stereo partly drawn) on HT29?
Result block: 1.11

Query block: Moving on to COc1c(C)cc2c(c1O)[C@@H]1C3[C@@H]4SC[C@]5(NC(C)Cc6c5[nH]c5ccc(O)cc65)C(=O)COC[C@@H](c5c6c(c(C)c(OC(C)=O)c54)OCO6)N3[C@@H](O)[C@H](C2)N1C (stereo partly drawn)
Result block: 1.10

Query block: Moving on to C=COC(=O)Oc1c(OC)c(C)cc2c1[C@@H]1C3[C@@H]4SC[C@]5(C(=O)COC[C@@H](c6c7c(c(C)c(OC(C)=O)c64)OCO7)N3[C@@H](C#N)[C@H](C2)N1C)c1[nH]c2ccccc2c1CCN5C(=O)OC=C (stereo partly drawn)
Result block: 1.05

Query block: Moving on to COc1c(C)cc2c(c1O)[C@@H]1C3[C@@H]4SC[C@]5(NCCc6c5[nH]c5ccccc65)C(=O)COC[C@@H](c5c6c(c(C)c(OC(=O)C(F)(F)C(F)(F)C(F)(F)F)c54)OCO6)N3[C@@H](O)[C@H](C2)N1C (stereo partly drawn)
Result block: -1.00

Query block: Moving on to COc1c(C)cc2c(c1O)[C@@H]1C3[C@@H]4SC[C@]5(NCCc6c5[nH]c5ccccc65)C(=O)COC[C@@H](c5c6c(c(C)c(OC(C)=O)c54)OCO6)N3[C@@H](O)[C@H](C2)N1C (stereo partly drawn)
Result block: -1.88
